All figures here come from patent US10280170B2.

Listing of recorded log10(IC50) by entry.
# target-entity: Ros1 enzyme (Homo sapiens)
# Construct: 0.5 μg/ml Ros1 enzyme
# Sequence (P08922 28-2347): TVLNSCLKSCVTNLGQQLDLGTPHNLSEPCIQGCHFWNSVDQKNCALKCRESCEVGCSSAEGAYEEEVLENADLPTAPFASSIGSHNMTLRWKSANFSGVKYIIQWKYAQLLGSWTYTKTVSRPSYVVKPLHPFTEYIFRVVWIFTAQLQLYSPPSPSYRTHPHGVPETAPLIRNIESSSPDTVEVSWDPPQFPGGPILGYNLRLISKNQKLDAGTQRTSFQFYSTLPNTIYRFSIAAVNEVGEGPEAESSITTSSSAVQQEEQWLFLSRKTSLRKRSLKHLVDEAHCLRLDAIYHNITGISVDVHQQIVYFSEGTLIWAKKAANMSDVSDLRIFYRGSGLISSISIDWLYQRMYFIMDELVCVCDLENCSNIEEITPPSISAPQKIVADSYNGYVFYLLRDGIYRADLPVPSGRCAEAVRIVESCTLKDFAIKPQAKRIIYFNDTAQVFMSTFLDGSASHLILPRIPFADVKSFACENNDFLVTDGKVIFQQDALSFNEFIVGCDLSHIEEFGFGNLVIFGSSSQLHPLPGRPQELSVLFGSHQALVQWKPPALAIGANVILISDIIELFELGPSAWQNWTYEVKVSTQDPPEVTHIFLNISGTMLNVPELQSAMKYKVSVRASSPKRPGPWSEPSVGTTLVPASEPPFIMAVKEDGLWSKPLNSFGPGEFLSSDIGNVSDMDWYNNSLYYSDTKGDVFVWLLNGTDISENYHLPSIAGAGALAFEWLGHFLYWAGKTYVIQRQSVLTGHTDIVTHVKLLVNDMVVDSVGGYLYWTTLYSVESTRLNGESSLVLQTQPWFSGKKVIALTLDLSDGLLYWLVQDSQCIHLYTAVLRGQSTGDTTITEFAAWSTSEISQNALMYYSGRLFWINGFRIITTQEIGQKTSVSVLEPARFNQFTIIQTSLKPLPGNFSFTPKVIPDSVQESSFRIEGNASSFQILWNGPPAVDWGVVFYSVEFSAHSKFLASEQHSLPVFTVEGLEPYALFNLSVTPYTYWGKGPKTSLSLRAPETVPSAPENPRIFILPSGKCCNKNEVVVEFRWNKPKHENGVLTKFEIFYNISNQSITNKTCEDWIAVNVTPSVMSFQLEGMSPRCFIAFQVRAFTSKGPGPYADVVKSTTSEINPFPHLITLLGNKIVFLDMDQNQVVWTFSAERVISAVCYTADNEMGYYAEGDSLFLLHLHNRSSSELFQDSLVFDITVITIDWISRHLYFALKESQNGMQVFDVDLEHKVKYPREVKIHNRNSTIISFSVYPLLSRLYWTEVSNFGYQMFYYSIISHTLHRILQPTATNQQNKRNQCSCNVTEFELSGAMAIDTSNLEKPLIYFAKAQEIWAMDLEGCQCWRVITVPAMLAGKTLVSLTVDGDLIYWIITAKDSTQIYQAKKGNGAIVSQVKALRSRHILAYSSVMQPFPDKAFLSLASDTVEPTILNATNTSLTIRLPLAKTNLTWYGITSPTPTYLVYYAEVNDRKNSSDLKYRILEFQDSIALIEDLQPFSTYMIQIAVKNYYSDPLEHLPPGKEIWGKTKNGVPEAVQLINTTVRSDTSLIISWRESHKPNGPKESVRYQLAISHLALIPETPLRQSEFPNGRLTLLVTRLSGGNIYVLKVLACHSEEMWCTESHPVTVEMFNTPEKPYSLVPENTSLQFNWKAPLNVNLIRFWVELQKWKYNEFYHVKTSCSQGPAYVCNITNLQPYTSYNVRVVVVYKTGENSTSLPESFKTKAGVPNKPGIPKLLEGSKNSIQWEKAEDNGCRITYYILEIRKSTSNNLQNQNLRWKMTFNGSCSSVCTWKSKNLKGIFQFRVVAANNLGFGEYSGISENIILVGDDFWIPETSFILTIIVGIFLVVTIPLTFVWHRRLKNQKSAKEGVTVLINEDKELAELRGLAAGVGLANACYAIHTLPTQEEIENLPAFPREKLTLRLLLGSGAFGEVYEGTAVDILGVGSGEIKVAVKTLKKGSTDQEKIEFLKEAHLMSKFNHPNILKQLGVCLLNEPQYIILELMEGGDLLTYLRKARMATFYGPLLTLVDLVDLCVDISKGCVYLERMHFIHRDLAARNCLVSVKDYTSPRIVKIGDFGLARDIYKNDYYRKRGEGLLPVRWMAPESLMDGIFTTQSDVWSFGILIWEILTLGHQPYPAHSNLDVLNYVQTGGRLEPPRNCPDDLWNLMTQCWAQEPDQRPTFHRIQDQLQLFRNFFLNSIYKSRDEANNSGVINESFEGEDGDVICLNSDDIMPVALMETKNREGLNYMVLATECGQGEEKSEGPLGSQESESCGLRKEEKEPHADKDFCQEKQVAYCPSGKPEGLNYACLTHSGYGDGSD
# test-protocol: Ros1 enzymatic assay
# Type: biochemical
# condition-set: Ros1 enzymatic assay; read-out: ROS1 pIC50 (converted)
Please be aware that the numbers have been log10-transformed from IC50 in nM.

> print(dat)
                                   molecule  measurement.label  experimental.value
1  CC(C)(CO)c1ccc(COc2ccc(-c3c(-c4ccncc4)nn4c3C(=O)NCC4)cc2)cc1        log10(IC50)                2.50
2  CC(C)c1ccc(COc2ccc(-c3c(-c4ccncc4)nn4c3C(=O)N(C(=O)OC(C)(C)C)CC4)cc2)cc1        log10(IC50)                3.50
3  CC(C)c1ccc(COc2ccc(-c3c(-c4ccncc4)nn4c3C(=O)NCC4)cc2C#N)cc1        log10(IC50)                2.60
4  CC(C)c1ccc(COc2ccc(-c3c(-c4ccncc4Cl)nn4c3C(=O)NCC4)cc2)cc1        log10(IC50)                2.00
5  CC(CO)c1ccc(COc2ccc(-c3c(-c4ccncc4)nn4c3C(=O)N(CCO)CC4)cc2)cc1 (stereo not shown)        log10(IC50)                3.10

# input Sample "CC(C)(C#N)c1ccc(COc2ccc(-c3c(-c4ccncc4)nn4c3C(=O)N(CCO)CC4)cc2)cc1" — what was its log10(IC50)?
# output 2.10

# input Could you tell me which log10(IC50) is on file for CC1Cn2nc(-c3ccncc3)c(-c3ccc(OCc4ccc(C5CC5)cc4)cc3)c2CN1 (stereo not shown) ?
# output 2.80

====

Recorded Ba/3 Ros1 G2032R (-IL-3) pIC50 values for a group of molecules are listed next.
# target-entity: Ba/F3 cells containing Ros1 with G2032R mutation (Homo sapiens, UniProt P08922, G2032R, cells depend on it, form not given)
# Sequence (P08922 whole entry G2032R, form open): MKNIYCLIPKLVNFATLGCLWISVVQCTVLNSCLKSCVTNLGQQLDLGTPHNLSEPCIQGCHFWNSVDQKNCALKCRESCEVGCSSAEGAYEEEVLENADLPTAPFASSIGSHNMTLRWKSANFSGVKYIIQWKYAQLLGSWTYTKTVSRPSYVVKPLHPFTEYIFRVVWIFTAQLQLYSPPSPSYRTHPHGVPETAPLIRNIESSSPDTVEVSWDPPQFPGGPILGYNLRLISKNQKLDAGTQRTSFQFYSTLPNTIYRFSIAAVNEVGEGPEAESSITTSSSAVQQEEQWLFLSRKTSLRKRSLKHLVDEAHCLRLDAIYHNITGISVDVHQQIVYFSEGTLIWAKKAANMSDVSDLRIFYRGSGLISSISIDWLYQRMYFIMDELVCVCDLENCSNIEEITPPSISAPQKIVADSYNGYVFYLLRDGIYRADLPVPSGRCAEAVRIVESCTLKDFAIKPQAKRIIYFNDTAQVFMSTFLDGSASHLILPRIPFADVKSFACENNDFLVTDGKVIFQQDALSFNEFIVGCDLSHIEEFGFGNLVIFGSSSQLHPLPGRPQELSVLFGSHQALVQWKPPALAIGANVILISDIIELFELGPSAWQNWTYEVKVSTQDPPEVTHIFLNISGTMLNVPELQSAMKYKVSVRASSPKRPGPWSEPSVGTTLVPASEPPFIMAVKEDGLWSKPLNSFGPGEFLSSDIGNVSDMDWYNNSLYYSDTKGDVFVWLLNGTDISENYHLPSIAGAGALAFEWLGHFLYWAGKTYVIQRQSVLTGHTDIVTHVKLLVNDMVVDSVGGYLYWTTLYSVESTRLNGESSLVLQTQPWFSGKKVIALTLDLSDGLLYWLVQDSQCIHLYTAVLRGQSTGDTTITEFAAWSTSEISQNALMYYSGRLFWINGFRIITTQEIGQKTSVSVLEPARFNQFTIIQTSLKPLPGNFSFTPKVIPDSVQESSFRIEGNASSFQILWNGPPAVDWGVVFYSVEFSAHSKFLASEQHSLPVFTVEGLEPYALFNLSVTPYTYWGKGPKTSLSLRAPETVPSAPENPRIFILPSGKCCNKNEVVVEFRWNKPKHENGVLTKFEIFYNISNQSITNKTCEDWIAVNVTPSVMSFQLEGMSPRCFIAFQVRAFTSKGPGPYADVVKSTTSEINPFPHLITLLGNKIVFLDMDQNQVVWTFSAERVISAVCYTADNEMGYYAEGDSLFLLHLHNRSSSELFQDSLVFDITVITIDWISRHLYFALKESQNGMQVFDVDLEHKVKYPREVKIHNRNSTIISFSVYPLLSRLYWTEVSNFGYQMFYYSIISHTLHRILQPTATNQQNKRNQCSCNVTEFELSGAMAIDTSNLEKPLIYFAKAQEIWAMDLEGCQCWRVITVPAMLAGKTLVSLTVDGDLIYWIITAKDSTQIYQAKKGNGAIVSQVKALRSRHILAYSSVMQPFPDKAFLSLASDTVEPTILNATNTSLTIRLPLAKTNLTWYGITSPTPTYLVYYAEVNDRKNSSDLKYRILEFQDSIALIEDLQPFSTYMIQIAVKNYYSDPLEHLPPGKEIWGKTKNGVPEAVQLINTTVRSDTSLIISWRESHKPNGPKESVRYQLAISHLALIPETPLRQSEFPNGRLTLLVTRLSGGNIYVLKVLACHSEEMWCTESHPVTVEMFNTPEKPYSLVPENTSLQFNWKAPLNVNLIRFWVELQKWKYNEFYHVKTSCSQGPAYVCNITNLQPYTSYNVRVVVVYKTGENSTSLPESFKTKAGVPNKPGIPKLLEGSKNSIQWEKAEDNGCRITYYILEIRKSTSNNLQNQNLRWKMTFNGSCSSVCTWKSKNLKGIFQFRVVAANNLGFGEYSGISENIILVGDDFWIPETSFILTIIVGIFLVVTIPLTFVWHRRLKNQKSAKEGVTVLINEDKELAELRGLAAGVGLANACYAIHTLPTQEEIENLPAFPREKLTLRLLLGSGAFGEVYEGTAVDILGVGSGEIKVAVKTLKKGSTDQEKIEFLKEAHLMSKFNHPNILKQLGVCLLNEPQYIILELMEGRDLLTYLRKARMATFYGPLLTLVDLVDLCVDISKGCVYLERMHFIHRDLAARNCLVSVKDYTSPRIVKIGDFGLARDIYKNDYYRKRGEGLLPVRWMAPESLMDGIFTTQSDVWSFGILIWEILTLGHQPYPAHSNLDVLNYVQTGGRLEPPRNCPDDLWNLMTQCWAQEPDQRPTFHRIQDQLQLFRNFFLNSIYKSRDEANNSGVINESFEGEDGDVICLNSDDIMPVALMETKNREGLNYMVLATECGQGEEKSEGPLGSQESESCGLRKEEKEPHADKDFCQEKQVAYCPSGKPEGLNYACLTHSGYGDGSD
# test-protocol: Ba/F3-Ros1 cell proliferation assay, G2032R crizotinib-resistance mutant
# Format: cell-based, murine
# condition-set: without IL-3
Reply: number alone, nothing else.

These solved cases illustrate the format of a correct answer.
> print(dat)
                                   molecule               measurement.label  experimental.value
1  CC(C)c1ccc(COc2ccc(-c3c(-c4ccncc4)nn4c3C(=O)NCC4)cn2)cc1  Ba/3 Ros1 G2032R (-IL-3) pIC50                 7.0
2  CC(O)CN1CCn2nc(-c3ccncc3)c(-c3ccc(OCc4ccc(C(C)C)cc4)cc3)c2C1=O (stereo not shown) [Compound 47]  Ba/3 Ros1 G2032R (-IL-3) pIC50                 6.9
3  O=C1NCCn2nc(-c3ccncc3)c(-c3ccc(OCc4ccc(OC(F)(F)F)cc4)cc3)c21  Ba/3 Ros1 G2032R (-IL-3) pIC50                 6.6

# input // Ba/3 Ros1 G2032R (-IL-3) pIC50 lookup, key: "CC(C)c1ccc(COc2ccc(-c3c(-c4ccncc4)nn4c3C(=O)NCC4)cc2)cc1"
# output 7.0

# input Look up Ba/3 Ros1 G2032R (-IL-3) pIC50: "O=C1NC2(CNC2)Cn2nc(-c3ccncc3)c(-c3ccc(OCc4ccc(C5CC5)cc4)cc3)c21"
# output 5.6

# input Tell me the measured Ba/3 Ros1 G2032R (-IL-3) pIC50 of "CNC(=O)CN1CCn2nc(-c3ccncc3)c(-c3ccc(OCc4ccc(C(C)C)cc4)cc3)c2C1" , please.
# output 6.4

# input // query Ba/3 Ros1 G2032R (-IL-3) pIC50 value for entry "CC(C)c1ccc(COc2ccc(-c3c(-c4ccncc4)nn4c3C(=O)N(C(C)C)CC4)cc2)cc1"
# output 6.9
